- Test system: Chordin-like protein 2 (CHRDL2)
- assay-protocol: CHRDL2 small-molecule binders, primary screen, biochemical, small-molecule microarray, 635 nm fluorescence (AID 1126);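 further: printed compound slides probed with Chrdl2 protein at 4 µg/mL for 1 h at 4 C; score merges 667 nm emission intensity with signal to noise over three replicate slides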
- assay-setup: small-molecule microarray binding, fluorescence 635 nm; higher = more signal

molecule	composite z-score
COc1ccc(C#Cc2ccc3c(c2)[C@]2(C(=O)N3)[C@H](C(=O)Nc3nc4ccccc4s3)[C@H]3C(=O)O[C@H](c4ccccc4)[C@H](c4ccccc4)N3[C@@H]2c2ccc(OCCO)cc2)cc1	0.254
CCCC=C(CCC)[C@@H](NC(=O)c1ccco1)c1ccc(C(=O)OC)cc1	-0.618
C#CCN(C/C=C/c1ccccc1)[C@H](CO[Si](C)(C)C(C)(C)C)c1ccccc1	-0.167
O=C1C2C=CC(C(O)c3cccc(O)c3)N(Nc3ccccc3F)C2C(=O)N1c1ccccc1 (configuration not stated)	-0.406
COCCOC(=O)N1C(=O)[C@@]2(c3cc(C#CC4=CCCCC4)ccc31)[C@H](c1ccccc1OCCO)N1[C@H](c3ccccc3)[C@H](c3ccccc3)OC(=O)[C@H]1[C@@H]2C(N)=O	0.492
COC(=O)[C@@]1(Cc2ccccc2)[C@@H]2[C@@H](CC(=O)[C@H]2CC(=O)C(=O)N(C)C)CN1C(=O)c1ccccc1	-0.641
C=CCC(OC(C)=O)[C@@H]1[C@@H](N(Cc2ccc(-c3ccccc3)cc2)C(=O)c2cccc3ccccc23)c2cc(OCCCO)ccc2N1C(=O)c1ccc2ccccc2c1 (some centres not stated)	-0.52

====

- assay-protocol: binders of probe aFST on microarray, primary screen, stem cell growth factor project, biochemical, small-molecule microarray, fluorescence 635/667 (AID 1086);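 further: score merges 667 nm fluorescence with signal-to-noise of each printed compound spot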
- assay-setup: higher = more signal
reported-property: composite z-score

>>> df
                              smiles_string  reported_property  result
0  COC(=O)[C@@]1(Cc2ccc(F)cc2)[C@H]2c3cc(C(=O)N(C)C)n(CCN4CCOCC4)c3C[C@H]2CN1C(=O)c1ccccc1  composite z-score   0.416
1  COC(=O)[C@@]1(Cc2ccc(OC)cc2)[C@H]2c3cc(C(=O)N4CCCC4)n(CCc4ccc(OC)c(Br)c4)c3C[C@H]2CN1C(=O)c1ccccc1  composite z-score   0.546
2  CC(C)CNC(=O)[C@@H]1c2ccccc2C(=O)N(Cc2ccccc2)[C@H]1c1ccc(CO)cc1  composite z-score  -0.469

====

- assay-protocol: small-molecule microarray binders of probe aEGFR, primary screen, biochemical, biotinylated probe, 635/667 nm fluorescence (AID 1097);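 further: probe is a biotinylated anti-EGFR antibody binding compounds printed on slides; score combines fluorescence near 667 nm and signal to noise of each spot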
- assay-setup: higher = more signal
Entries and their composite z-score
reported-property: composite z-score

                                   molecule  recorded_number
0  CN1C(=O)C2C=CC(C(O)c3ccc(-c4ccccc4)s3)N(Nc3ccccc3)C2C1=O (centres undefined)          -0.0043
1  CC(C)N1CC=CC23O[C@@H]4C=CCCOC(=O)C4[C@H]2C(=O)N(CCCCCO)[C@@H]3C1=O (some centres undefined)           -0.236
2  O=C1OCCC=C[C@H]2OC34C=CCN(c5ccc(Cl)cc5)C(=O)[C@H]3N(CCO)C(=O)[C@@H]4C12 (some centres undefined)           -0.194
3  CC(C)C[C@@H]1NC(=O)[C@@H]2C[C@H](C(=O)NCCCC[N+](C)(C)C)[C@H](c3ccc(O)cc3)N2C1=O           0.0251
